biological target: 3',5'-cyclic-AMP phosphodiesterase 4D (Homo sapiens); assay type: functional; note: assay procedure not described here
Sequence (Q08499 whole entry): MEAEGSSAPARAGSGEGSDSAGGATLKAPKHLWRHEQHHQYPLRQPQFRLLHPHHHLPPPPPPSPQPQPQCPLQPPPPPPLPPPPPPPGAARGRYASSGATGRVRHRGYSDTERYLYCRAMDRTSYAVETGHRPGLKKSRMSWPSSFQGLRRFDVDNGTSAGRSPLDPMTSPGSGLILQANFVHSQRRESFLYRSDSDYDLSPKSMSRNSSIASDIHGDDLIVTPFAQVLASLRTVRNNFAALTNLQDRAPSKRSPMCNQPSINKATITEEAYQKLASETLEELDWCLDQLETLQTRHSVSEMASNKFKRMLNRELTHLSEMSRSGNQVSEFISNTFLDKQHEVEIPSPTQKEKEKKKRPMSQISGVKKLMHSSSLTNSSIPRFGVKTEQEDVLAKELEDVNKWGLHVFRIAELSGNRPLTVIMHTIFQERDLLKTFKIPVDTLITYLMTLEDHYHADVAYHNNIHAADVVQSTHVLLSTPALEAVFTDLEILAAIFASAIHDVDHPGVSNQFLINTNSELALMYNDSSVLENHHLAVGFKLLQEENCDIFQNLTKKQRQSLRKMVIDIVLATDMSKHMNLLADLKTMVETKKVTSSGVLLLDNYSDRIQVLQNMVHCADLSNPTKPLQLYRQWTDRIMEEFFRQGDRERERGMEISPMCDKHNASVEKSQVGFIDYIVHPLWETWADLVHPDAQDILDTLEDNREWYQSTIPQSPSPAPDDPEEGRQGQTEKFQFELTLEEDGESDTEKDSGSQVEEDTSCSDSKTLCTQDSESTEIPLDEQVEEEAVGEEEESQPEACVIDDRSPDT
Below is a list of entries, each paired with its recorded AC50 value.

Examples with their reported AC50 follow.
>  <Molecule>
Cc1ncc2n1-c1ccc(Cl)cc1C(c1ccccc1F)=NC2

>  <AC50>
10 µM

$$$$
>  <Molecule>
CCCCC(=O)O[C@]1(C(=O)CO)[C@@H](C)C[C@H]2[C@@H]3CCC4=CC(=O)C=C[C@]4(C)[C@@]3(F)[C@@H](O)C[C@@]21C [BETAMETHASONE VALERATE]

>  <AC50>
> 30 µM

$$$$
>  <Molecule>
CCCN[C@H]1CCc2nc(N)sc2C1 [PRAMIPEXOLE]

>  <AC50>
> 30 µM

$$$$
>  <Molecule>
O=C(O)c1ccccc1Nc1cc(Cl)ccc1C(=O)O

>  <AC50>
> 30 µM

$$$$
>  <Molecule>
CCOC(=O)O[C@]1(C(=O)OCCl)CC[C@H]2[C@@H]3CCC4=CC(=O)C=C[C@]4(C)[C@H]3[C@@H](O)C[C@@]21C [LOTEPREDNOL ETABONATE]

>  <AC50>
> 30 µM

$$$$
>  <Molecule>
O=C1CN(/N=C/c2ccc(-c3ccc([N+](=O)[O-])cc3)o2)C(O)=N1

>  <AC50>
> 30 µM

$$$$
>  <Molecule>
CCCN(CCC)C(=O)Cc1c(-c2ccc(Cl)cc2)nc2ccc(Cl)cn12

>  <AC50>
13 µM

$$$$
>  <Molecule>
CC(=O)O[C@]1(C(C)=O)CC[C@H]2[C@@H]3C=C(C)C4=CC(=O)CC[C@@H]4[C@H]3CC[C@@]21C [NOMEGESTROL ACETATE]

>  <AC50>
14 µM

$$$$
>  <Molecule>
CC(=O)SC[C@@H](C)C(=O)N1CCC[C@H]1C(=O)N[C@@H](Cc1ccccc1)C(=O)O

>  <AC50>
> 30 µM

$$$$
>  <Molecule>
N[C@@H](CC(=O)N1CCn2c(nnc2C(F)(F)F)C1)Cc1cc(F)c(F)cc1F

>  <AC50>
> 30 µM

$$$$

Q: Which AC50 is reported for this molecule? `C=C[C@@]1(C)CC(=O)[C@]2(O)[C@@]3(C)[C@@H](O)CCC(C)(C)[C@@H]3[C@H](O)[C@H](OC(C)=O)[C@@]2(C)O1`
Result: > 30 µM

Q: Which AC50 is reported for this molecule? CCC(COC(=O)c1cc(OC)c(OC)c(OC)c1)(c1ccccc1)N(C)C (stereo not drawn)
Result: 26 µM

----------
molecular target: Cannabinoid receptor 1 (Homo sapiens); note: assay procedure not described here
Sequence (P21554 whole entry): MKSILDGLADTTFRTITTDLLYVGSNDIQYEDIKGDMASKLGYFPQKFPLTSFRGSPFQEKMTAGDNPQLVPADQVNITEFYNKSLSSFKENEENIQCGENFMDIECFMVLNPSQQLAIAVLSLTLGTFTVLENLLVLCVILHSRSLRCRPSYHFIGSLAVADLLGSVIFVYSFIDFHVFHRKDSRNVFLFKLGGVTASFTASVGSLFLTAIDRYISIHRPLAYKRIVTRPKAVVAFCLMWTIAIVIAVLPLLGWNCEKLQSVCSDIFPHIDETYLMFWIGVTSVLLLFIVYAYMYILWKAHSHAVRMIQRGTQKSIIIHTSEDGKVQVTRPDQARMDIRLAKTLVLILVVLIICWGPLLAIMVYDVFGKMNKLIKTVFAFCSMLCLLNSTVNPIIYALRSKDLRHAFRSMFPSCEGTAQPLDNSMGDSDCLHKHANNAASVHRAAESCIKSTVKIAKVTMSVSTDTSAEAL
Below is a list of entries, each paired with its recorded AC50 value.

Examples with their reported AC50 follow.
>  <Compound>
CC12CC3CC(C)(C1)CC(N)(C3)C2 [MEMANTINE]

>  <Experimental value>
> 10 µM

$$$$
>  <Compound>
C[C@H](Cc1ccc(O)c(O)c1)[C@@H](C)Cc1ccc(O)c(O)c1 [MASOPROCOL]

>  <Experimental value>
23.9 µM

$$$$

Q: Look up AC50 with Cannabinoid receptor 1 (Homo sapiens) for this compound: OCc1cc(C(O)CNCCCCCCOCCCCc2ccccc2)ccc1O (stereo unspecified) [SALMETEROL]
Result: > 10 µM

Q: Look up AC50 with Cannabinoid receptor 1 (Homo sapiens) for this compound: CO[C@H]1/C=C/O[C@@]2(C)Oc3c(C)c(O)c4c(O)c(c(/C=N/N5CCN(C)CC5)c(O)c4c3C2=O)NC(=O)/C(C)=C\C=C\[C@H](C)[C@H](O)[C@@H](C)[C@@H](O)[C@@H](C)[C@H](OC(C)=O)[C@@H]1C [RIFAMPIN]
Result: > 30 µM

Q: Look up AC50 with Cannabinoid receptor 1 (Homo sapiens) for this compound: CN(C)CCc1c[nH]c2ccc(Cn3cncn3)cc12 [RIZATRIPTAN]
Result: > 10 µM

Q: Look up AC50 with Cannabinoid receptor 1 (Homo sapiens) for this compound: Nc1ccc(S(=O)(=O)Nc2nccs2)cc1 [SULFATHIAZOLE]
Result: > 10 µM

Q: Look up AC50 with Cannabinoid receptor 1 (Homo sapiens) for this compound: CC(=O)[C@@]1(O)CC[C@H]2[C@@H]3C=C(Cl)C4=CC(=O)[C@@H]5C[C@@H]5[C@]4(C)[C@H]3CC[C@@]21C [CYPROTERONE]
Result: > 10 µM
